Ref: patent US20090048164A1

Entries annotated with measured Fold/wt
# TARGET_DESC: Recombinant human Bcl-xL with a 25 amino acid truncation of its C-terminus (human) (UniProt Q07817)
# Sequence (Q07817 1-208): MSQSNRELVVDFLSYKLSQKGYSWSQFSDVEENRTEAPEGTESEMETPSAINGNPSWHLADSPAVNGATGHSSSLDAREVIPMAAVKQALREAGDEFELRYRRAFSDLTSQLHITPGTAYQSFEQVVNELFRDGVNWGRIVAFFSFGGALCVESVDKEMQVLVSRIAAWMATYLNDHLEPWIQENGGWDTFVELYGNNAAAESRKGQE
# ASSAY_PROCEDURE: competition phage ELISA

BINDER | MEASUREMENT_LABEL | MEASUREMENT
PSSTAGQVGRQLAIIGDDINRRYDSE [Bak BH3 M5A, phage-displayed] | Fold/wt | < 1 fold
NLWAAQRYGRELRRMSDEFVDSFKAG [Bad BH3 K25A, phage-displayed] | Fold/wt | 2 fold
NLWAAQRYGRELRRMSDEFVDAFKKG [Bad BH3 S22A, phage-displayed] | Fold/wt | 2 fold
QEDIIRNIARALAQVGDSMDRSIPPG [Bid BH3 H11A, phage-displayed] | Fold/wt | 1 fold

Next item in the queue.
Asked: Sample QEDIIRNIARHLAQVGDSMARSIPPG [Bid BH3 D20A, phage-displayed] — what was its Fold/wt?
Given back: 1 fold
